The following compounds are listed with their measured IC50 values.
# test-system: Aldo-keto reductase family 1 member C2 (Homo sapiens, UniProt P52895)
# Sequence (P52895 whole entry): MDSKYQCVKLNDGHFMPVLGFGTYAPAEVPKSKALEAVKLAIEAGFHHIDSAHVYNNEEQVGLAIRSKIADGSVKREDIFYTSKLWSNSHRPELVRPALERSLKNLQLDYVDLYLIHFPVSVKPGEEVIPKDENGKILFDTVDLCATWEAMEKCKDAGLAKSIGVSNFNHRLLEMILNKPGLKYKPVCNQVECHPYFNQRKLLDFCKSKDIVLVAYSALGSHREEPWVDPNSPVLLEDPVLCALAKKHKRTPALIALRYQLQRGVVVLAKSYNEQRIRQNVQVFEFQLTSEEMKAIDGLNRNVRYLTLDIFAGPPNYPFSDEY
# protocol-summary: Inhibition of human recombinant AKR1C2-mediated NADP+-dependent oxidation of S-(+)-1,2,3,4-tetrahydro-1-naphthol
assay-endpoint: IC50 (µM)

> print(dat)
                              sample.smiles  unit.name  value
1  COc1ccc2c(c1)c(CC(=O)NS(=O)(=O)c1ccc(OC(F)(F)F)cc1)cn2C(=O)c1ccc(Cl)cc1         µM   59.4
2  Cc1c(CCC(=O)O)c2cc(F)ccc2n1C(=O)c1ccc(Cl)cc1         µM   13.5
3  COc1ccc2c(c1)c(C)c(CCC(=O)NS(=O)(=O)c1ccccc1C)n2C(=O)c1ccc(Cl)cc1         µM   21.1
4  COc1ccc2c(c1)c(CC(=O)NS(=O)(=O)c1cc(C(F)(F)F)ccc1C(F)(F)F)cn2C(=O)c1ccc(Cl)cc1         µM   19.3

====

IC50 for assorted compounds
# test-system: Aldo-keto reductase family 1 member C2 (Homo sapiens)
# protocol-summary: Inhibition of human recombinant AKR1C2-mediated NADP+-dependent oxidation of S-(+)-1,2,3,4-tetrahydro-1-naphthol
assay-endpoint: IC50 (µM)

> print(dat)
                                   compound  assay.endpoint  reported.relation  value
1  COc1ccc2c(c1)c1c(n2C(=O)c2cccc(C(F)(F)F)c2)CCC(C(=O)O)C1 (stereo not given)            IC50                  =    100
2  COC(=O)Cc1c(C)n(C(=O)c2ccc(Cl)cc2)c2ccc(OC)cc12            IC50                  >    100
3  COc1ccc2c(c1)c(CC(=O)O)cn2C(=O)c1cccc(C(F)(F)F)c1            IC50                  =    100
4  COc1ccc2c(c1)c1c(n2C(=O)c2ccc(Cl)cc2)CC(C(=O)O)CC1 (stereo not given)            IC50                  =   48.2
5     COc1ccc2c(c1)cc(C)n2C(=O)c1ccc(Cl)cc1            IC50                  =     24

====

Listed here: items and their measured pIC50.
# test-system: Aldo-keto reductase family 1 member C2 (Homo sapiens, UniProt P52895)
# Sequence (P52895 whole entry): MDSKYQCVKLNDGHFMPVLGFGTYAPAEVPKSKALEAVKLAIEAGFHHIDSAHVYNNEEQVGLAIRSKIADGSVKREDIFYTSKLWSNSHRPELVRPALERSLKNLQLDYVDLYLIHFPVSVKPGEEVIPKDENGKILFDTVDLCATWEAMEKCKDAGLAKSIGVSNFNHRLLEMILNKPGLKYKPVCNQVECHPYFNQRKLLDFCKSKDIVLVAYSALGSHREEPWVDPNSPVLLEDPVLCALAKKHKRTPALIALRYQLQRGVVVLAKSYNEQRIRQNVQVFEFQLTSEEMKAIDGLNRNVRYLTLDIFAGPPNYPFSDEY
# protocol-summary: Inhibition of human recombinant AKR1C2-mediated NADP+-dependent oxidation of S-(+)-1,2,3,4-tetrahydro-1-naphthol
pIC50: −log10 of the molar value.
assay-endpoint: pIC50

> print(dat)
                                    molecule                               test.system  reported.relation  value
 1  Cc1c(CC(=O)O)c2cc(F)ccc2n1C(=O)c1cccc(C(F)(F)F)c1  Aldo-keto reductase family 1 member C2 (Homo sapiens, UniProt P52895)                  =   5.11
 2  COC(=O)Cc1c(C)n(C(=O)c2ccc(C(F)(F)F)cc2)c2ccc(OC)cc12  Aldo-keto reductase family 1 member C2 (Homo sapiens, UniProt P52895)                  <   4.00
 3  COc1ccc2c(c1)c(C)c(CCC(=O)NS(=O)(=O)c1ccc3ccccc3c1)n2C(=O)c1ccc(Cl)cc1  Aldo-keto reductase family 1 member C2 (Homo sapiens, UniProt P52895)                  =   4.14
 4  COc1ccc2c(c1)c(C)c(CC(C)C(=O)O)n2C(=O)c1ccc(Cl)cc1 (racemic)  Aldo-keto reductase family 1 member C2 (Homo sapiens, UniProt P52895)                  =   4.91
 5  COc1ccc2c(c1)c(CC(=O)NS(=O)(=O)c1ccc(C#N)cc1)cn2C(=O)c1ccc(Cl)cc1  Aldo-keto reductase family 1 member C2 (Homo sapiens, UniProt P52895)                  =   4.48
 6  COc1ccc2c(c1)c(CC(=O)NS(=O)(=O)c1ccc(Cl)s1)cn2C(=O)c1ccc(Cl)cc1  Aldo-keto reductase family 1 member C2 (Homo sapiens, UniProt P52895)                  =   4.82
 7  O=C(O)Cc1cn(C(=O)c2ccc(Cl)cc2)c2ccc(F)cc12  Aldo-keto reductase family 1 member C2 (Homo sapiens, UniProt P52895)                  =   4.63
 8  COc1ccc2c(c1)c(CC(=O)O)cn2C(=O)c1ccc(F)cc1  Aldo-keto reductase family 1 member C2 (Homo sapiens, UniProt P52895)                  <   4.00
 9  COc1ccc2c(c1)c(C)c(CCC(=O)NS(=O)(=O)c1ccc(C(C)C)cc1)n2C(=O)c1ccc(Cl)cc1  Aldo-keto reductase family 1 member C2 (Homo sapiens, UniProt P52895)                  =   4.26
10  COc1ccc2c(c1)c(C)c(CCC(=O)NS(=O)(=O)c1ccc(C(F)(F)F)cc1)n2C(=O)c1ccc(Cl)cc1  Aldo-keto reductase family 1 member C2 (Homo sapiens, UniProt P52895)                  =   4.47
11  COc1ccc2c(c1)c(CC(=O)NS(C)(=O)=O)cn2C(=O)c1ccc(Cl)cc1  Aldo-keto reductase family 1 member C2 (Homo sapiens, UniProt P52895)                  =   4.78
12  COc1ccc2c(c1)c(CC(=O)NS(=O)(=O)c1ccc(F)cc1)cn2C(=O)c1ccc(Cl)cc1  Aldo-keto reductase family 1 member C2 (Homo sapiens, UniProt P52895)                  =   4.40
13  COc1ccc2c(c1)c(CC(=O)O)c(C)n2C(=O)c1ccc(F)cc1  Aldo-keto reductase family 1 member C2 (Homo sapiens, UniProt P52895)                  =   4.21
14         CCC(=O)Cc1cn(C(=O)O)c2ccc(OC)cc12  Aldo-keto reductase family 1 member C2 (Homo sapiens, UniProt P52895)                  =   4.00
15  COc1ccc2c(c1)c(C)c(CCC(=O)NS(=O)(=O)c1ccc(OC(F)(F)F)cc1)n2C(=O)c1ccc(Cl)cc1  Aldo-keto reductase family 1 member C2 (Homo sapiens, UniProt P52895)                  =   4.39
16  COC(=O)Cc1cn(C(=O)c2ccc(Cl)cc2)c2ccc(OC)cc12  Aldo-keto reductase family 1 member C2 (Homo sapiens, UniProt P52895)                  <   4.00
17  COc1ccc2c(c1)c(CC(=O)NS(=O)(=O)c1ccc(Br)cc1)cn2C(=O)c1ccc(Cl)cc1  Aldo-keto reductase family 1 member C2 (Homo sapiens, UniProt P52895)                  =   4.40
18  COc1ccc2c(c1)c(C)c(CC(C)C(=O)NS(C)(=O)=O)n2C(=O)c1ccc(Cl)cc1 (stereo not given)  Aldo-keto reductase family 1 member C2 (Homo sapiens, UniProt P52895)                  =   3.94
19  COc1ccc2c(c1)c(CC(=O)O)cn2C(=O)c1ccc(C(F)(F)F)cc1  Aldo-keto reductase family 1 member C2 (Homo sapiens, UniProt P52895)                  <   4.00
20  COc1ccc(S(=O)(=O)NC(=O)Cc2cn(C(=O)c3ccc(Cl)cc3)c3ccc(OC)cc23)cc1  Aldo-keto reductase family 1 member C2 (Homo sapiens, UniProt P52895)                  =   4.40
